Cited source for all entries: PubChem BioAssay (NCI)

- Tested on: SR leukemia
- test-method-notes: NCI tumour cell line growth inhibition, 48 h
Property: TGI; scope: individual molecules
measurement-name: TGI

{"molecule": "CCN(C(=O)N[C@@H](Cc1ccccc1)C(=O)N[C@@H](CC(C)C)C(=O)OC)c1ccccc1", "endpoint-value": "23.9 µM"}
{"molecule": "O=C1CSC(=S)N1", "endpoint-value": "> 100 µM"}
{"molecule": "CN(C)c1ccc(/C=C/C(=O)CC(=O)/C=C/c2ccc(N(C)C)cc2)cc1", "endpoint-value": "76.7 µM"}
{"molecule": "[N-]=[N+]=NC(CCl)c1cn([C@H]2C[C@H](O)[C@@H](CO)O2)c(=O)[nH]c1=O (stereo partly drawn)", "endpoint-value": "> 100 µM"}
{"molecule": "COc1ccc(CCCCl)c(C2=NCCc3cc(OC)c(OC)cc32)c1", "endpoint-value": "> 100 µM"}
{"molecule": "COc1cc(Br)c(C=Nc2cccc3cc(OC)c(OC)cc23)cc1OC", "endpoint-value": "> 100 µM"}
{"molecule": "CC[C@@]1(O)C(=O)OCc2c1cc1n(c2=O)Cc2c-1nc1ccccc1c2/C=N\\NC(=O)C(N)CO (stereo partly drawn)", "endpoint-value": "3.59 µM"}
{"molecule": "NCCCOc1ccc([N+](=O)[O-])cc1Cl", "endpoint-value": "> 100 µM"}
